Each recorded value in this set is attributed to paper PMC8001558.

- subject of test: GII.4 Saga (P-domain) (Norovirus GII.4)
- assay: Re-evaluation of previously reported STD NMR titrations, one-site binding model
- Design: species or system human norovirus (HuNoV)
- measurement conditions: KD in mM (reevaluated)
result type: Kd (mM)
Use mM as the unit, but write only the number.

State its Kd: O=C(O)CC(O)(CC(=O)O)C(=O)O [Citrate, reference compound] 22.9

----------
- subject of test: GII.4 Saga (P-domain) (Norovirus GII.4, UniProt B5BTR7)
- assay: Re-evaluation of previously reported STD NMR titrations, one-site binding model
- Parameters: species or system human norovirus (HuNoV)
- measurement conditions: 25 mM Tris-d11 pH* 7.40, 300 mM NaCl; 298 K; refit of titration data of ref [2]; read-out: KD in mM (reevaluated)
Each entry below lists one item and its recorded Kd value.
Use mM as the unit, but write only the number.

molecule	Kd, mM
CO[C@@H]1O[C@H](CO)[C@H](O)[C@H](O[C@H]2O[C@H](CO)[C@H](O)[C@H](O)[C@H]2O)[C@H]1O[C@@H]1O[C@@H](C)[C@@H](O)[C@@H](O)[C@@H]1O [b -Methyl glycoside of B-trisaccharide, reference compound]	5.2

State its Kd: CO[C@@H]1O[C@H](CO)[C@H](O)[C@H](O)[C@H]1O[C@@H]1O[C@@H](C)[C@@H](O)[C@@H](O)[C@@H]1O [H-Dis 12, blood group H-disaccharide] 26.5
